Overview of reported Kq (bimolecular quenching constant) across a group of molecules:
# TARGET_UNDER_TEST: UniProtKB Q8NIN8
# METHOD_DESCRIPTION: Quenching of CpLIP2 intrinsic tryptophan fluorescence by flavonols (Stern–Volmer, Lehrer, van't Hoff analysis)
# Assay type: binding
# PARTICULARS: 308 K; Kq = KSV/τ0, τ0 1.59 ns
Dear colleague, please return just the value in M⁻¹ s⁻¹, with no unit written.

Example entries begin here.
O=c1c(O)c(-c2ccccc2)oc2cc(O)cc(O)c12 | 1.5e+13
O=c1c(O)c(-c2ccc(O)cc2)oc2cc(O)cc(O)c12 | 1.2e+13
O=c1c(O)c(-c2cc(O)c(O)c(O)c2)oc2cc(O)cc(O)c12 | 8.2e+12

### Prompt Quick check: Kq (bimolecular quenching constant) of O=c1c(O)c(-c2ccc(O)c(O)c2)oc2cc(O)cc(O)c12 ?
### Response 1e+13

====

# TARGET_UNDER_TEST: UniProt Q8NIN8
# METHOD_DESCRIPTION: Inhibition of CpLIP2 hydrolytic activity (ethyl oleate hydrolysis, GC)
# Format: biochemical
# PARTICULARS: Ki, estimated after 30 min of pre-incubation; non-competitive or uncompetitive model
Overview of reported Ki across a group of compounds:
Dear colleague, please return just the value in µM, with no unit written.

Example entries begin here.
O=c1c(O)c(-c2ccc(O)cc2)oc2cc(O)cc(O)c12 | 6
O=c1c(O)c(-c2cc(O)c(O)c(O)c2)oc2cc(O)cc(O)c12 | 60
O=c1c(O)c(-c2ccc(O)c(O)c2)oc2cc(O)cc(O)c12 | 80

### Prompt Quick check: Ki of CCCCCCCCCCC[C@@H](C[C@@H]1OC(=O)[C@H]1CCCCCC)OC(=O)[C@H](CC(C)C)NC=O [THL, tetrahydrolipstatin, reference compound] ?
### Response 0.6

====

# TARGET_UNDER_TEST: CpLIP2 lipase (Candida parapsilosis, UniProt Q8NIN8)
# Sequence (Q8NIN8 entry or part of it): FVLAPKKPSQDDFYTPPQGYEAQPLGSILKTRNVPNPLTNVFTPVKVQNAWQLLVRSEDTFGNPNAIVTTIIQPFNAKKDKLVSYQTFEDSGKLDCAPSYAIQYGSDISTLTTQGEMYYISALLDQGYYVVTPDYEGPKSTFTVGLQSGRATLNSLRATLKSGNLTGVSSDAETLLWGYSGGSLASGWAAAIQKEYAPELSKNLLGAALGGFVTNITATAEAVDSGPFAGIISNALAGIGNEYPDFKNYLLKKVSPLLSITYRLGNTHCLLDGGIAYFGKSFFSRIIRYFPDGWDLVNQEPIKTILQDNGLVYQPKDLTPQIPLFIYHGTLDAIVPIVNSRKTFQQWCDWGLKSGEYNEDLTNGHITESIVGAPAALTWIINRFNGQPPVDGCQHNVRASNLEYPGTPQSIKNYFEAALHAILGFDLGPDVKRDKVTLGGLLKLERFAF
# METHOD_DESCRIPTION: Fluorescence resonance energy transfer between CpLIP2 and flavonols (Förster theory)
# Assay type: binding
# PARTICULARS: 2.5 µM, 308 K, pH 7.0
VALUE_KIND: J (overlap integral)

Example entries begin here.
O=c1c(O)c(-c2ccc(O)c(O)c2)oc2cc(O)cc(O)c12 [QUE, quercetin] | 12 × 10^14 nm^4·cm^−1·M^−1
O=c1c(O)c(-c2ccccc2)oc2cc(O)cc(O)c12 [GAL, galangin] | 0.8 × 10^14 nm^4·cm^−1·M^−1
O=c1c(O)c(-c2ccc(O)cc2)oc2cc(O)cc(O)c12 [KAE, kaempferol] | 10 × 10^14 nm^4·cm^−1·M^−1

Continue with the next compound.
### Prompt Quick check: J (overlap integral) of O=c1c(O)c(-c2cc(O)c(O)c(O)c2)oc2cc(O)cc(O)c12 [MYR, myricetin] ?
### Response 15 × 10^14 nm^4·cm^−1·M^−1

====

# TARGET_UNDER_TEST: CpLIP2 lipase (Candida parapsilosis)
# METHOD_DESCRIPTION: Quenching of CpLIP2 intrinsic tryptophan fluorescence by flavonols (Stern–Volmer, Lehrer, van't Hoff analysis)
# Format: binding
# PARTICULARS: 328 K; Lehrer equation
# Source text: The fluorescence quenching spectra of CpLIP2 lipase submitted to increasing concentrations of GAL, KAE, QUE and MYR are shown in Figure 3. A remarkable quenching of the CpLIP2 fluorescence emission was observed. […] The fluorescence quenching is usually described by the linear Stern–Volmer Equations (2) and (3):(2) F0/F = 1 + Ksv [Q] = 1 + Kqτ0 [Q] […] The inaccessible or buried residues are responsible for the remaining fluorescence, which is probably independent of the quencher concentration. […]
Overview of reported fa (fraction of accessible W residues to the quencher) across a group of compounds:
Respond with the number and no other words.

O=c1c(O)c(-c2ccc(O)cc2)oc2cc(O)cc(O)c12 [KAE, kaempferol] | 0.34

### Prompt Quick check: fa (fraction of accessible W residues to the quencher) of O=c1c(O)c(-c2cc(O)c(O)c(O)c2)oc2cc(O)cc(O)c12 [MYR, myricetin] ?
### Response 0.33

### Prompt Quick check: fa (fraction of accessible W residues to the quencher) of O=c1c(O)c(-c2ccc(O)c(O)c2)oc2cc(O)cc(O)c12 [QUE, quercetin] ?
### Response 0.69

### Prompt Quick check: fa (fraction of accessible W residues to the quencher) of O=c1c(O)c(-c2ccccc2)oc2cc(O)cc(O)c12 [GAL, galangin] ?
### Response 0.25
